Source listed as patent US9586914B2.

Molecular target: C3aR (Homo sapiens, UniProt Q16581)
Construct: peripheral blood mononuclear cells were isolated from buffy coat (obtained from Australian Red Cross Blood Service, Kelvin Grove); endogenous in cells; host or cells: primary human monocyte-derived macrophages (HMDM) differentiated from CD14+ monocytes of donor buffy coat
Sequence (Q16581 whole entry): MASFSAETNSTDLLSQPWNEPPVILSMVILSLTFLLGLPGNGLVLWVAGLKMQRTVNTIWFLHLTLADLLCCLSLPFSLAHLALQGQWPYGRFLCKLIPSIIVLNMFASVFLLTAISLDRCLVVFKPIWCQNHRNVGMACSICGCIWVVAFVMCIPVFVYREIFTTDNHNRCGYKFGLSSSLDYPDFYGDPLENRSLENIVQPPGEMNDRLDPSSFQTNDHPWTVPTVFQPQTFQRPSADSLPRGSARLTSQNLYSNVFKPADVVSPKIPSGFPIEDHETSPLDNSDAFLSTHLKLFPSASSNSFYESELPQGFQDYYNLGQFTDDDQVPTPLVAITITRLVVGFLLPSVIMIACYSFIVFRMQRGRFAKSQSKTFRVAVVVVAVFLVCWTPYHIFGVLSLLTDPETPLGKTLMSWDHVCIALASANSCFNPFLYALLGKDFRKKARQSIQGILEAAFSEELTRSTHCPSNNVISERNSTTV
Experiment: Calcium mobilization assay in HMDM (agonist/antagonist activity)
Format: cell-based
Conditions: Table 11; Ca^2+ mobilisation, HMDM; read-out: Apparent Antagonist Activity IC50
VALUE_KIND: IC50 (nM)
Respond numerically; units are nM and should not be typed.

Data request: Report IC50 for NC(N)=NCCC[C@H](NC(=O)COCC(c1ccccc1)c1ccccc1)C(=O)O [SB290157, reference compound] please.
Data returned: 2700
